These data points were gathered from ChEMBL document CHEMBL1138485.

Could you please report measured EC50 for the items listed next?
Target: Nitric oxide synthase, inducible (Mus musculus)
Sequence (P29477 whole entry): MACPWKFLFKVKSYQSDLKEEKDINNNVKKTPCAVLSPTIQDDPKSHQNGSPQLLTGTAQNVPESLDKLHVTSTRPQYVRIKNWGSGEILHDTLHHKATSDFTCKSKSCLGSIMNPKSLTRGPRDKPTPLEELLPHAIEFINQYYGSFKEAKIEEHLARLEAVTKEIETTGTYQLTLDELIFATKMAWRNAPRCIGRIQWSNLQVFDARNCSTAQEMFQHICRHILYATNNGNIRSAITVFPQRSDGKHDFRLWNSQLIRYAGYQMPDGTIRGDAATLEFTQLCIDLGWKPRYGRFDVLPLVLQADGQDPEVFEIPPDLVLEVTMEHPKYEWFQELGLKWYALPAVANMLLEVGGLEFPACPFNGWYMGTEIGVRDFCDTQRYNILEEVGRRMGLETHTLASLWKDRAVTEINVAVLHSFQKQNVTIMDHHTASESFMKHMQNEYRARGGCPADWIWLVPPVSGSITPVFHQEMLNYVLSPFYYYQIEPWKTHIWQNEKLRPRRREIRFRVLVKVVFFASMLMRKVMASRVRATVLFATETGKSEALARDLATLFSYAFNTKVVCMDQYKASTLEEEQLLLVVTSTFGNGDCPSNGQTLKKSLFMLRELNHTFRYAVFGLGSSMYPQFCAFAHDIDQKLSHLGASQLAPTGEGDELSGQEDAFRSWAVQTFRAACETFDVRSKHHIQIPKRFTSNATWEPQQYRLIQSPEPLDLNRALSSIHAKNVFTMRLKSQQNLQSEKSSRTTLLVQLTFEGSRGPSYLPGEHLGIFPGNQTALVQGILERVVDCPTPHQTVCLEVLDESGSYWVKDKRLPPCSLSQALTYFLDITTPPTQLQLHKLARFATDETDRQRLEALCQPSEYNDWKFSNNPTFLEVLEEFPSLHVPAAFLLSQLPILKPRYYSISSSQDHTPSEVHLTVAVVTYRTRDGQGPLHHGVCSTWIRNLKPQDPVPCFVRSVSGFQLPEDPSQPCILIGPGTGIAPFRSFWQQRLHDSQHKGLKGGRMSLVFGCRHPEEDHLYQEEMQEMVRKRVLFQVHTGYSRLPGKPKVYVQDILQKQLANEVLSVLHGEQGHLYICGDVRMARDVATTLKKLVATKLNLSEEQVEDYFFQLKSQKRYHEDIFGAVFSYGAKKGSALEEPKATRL
Assay: Inhibition of mouse iNOS expressed in HEK293 cells assessed as NO production in by transient transfection assay
Answers are plain numbers, in nM.

SMILES STR: Cc1ncsc1C(=O)N(Cc1c[n+]([O-])cc2c(F)c(F)ccc12)c1cccc(Cl)c1
EXPERIMENTAL READOUT: EC50
QUANTITY UNIT: nM
ASSAY VALUE: 74
//
SMILES STR: CC(C)C(=O)N(Cc1cc(=O)[nH]c2c(F)cccc12)c1cccc(Cl)c1
EXPERIMENTAL READOUT: EC50
QUANTITY UNIT: nM
ASSAY VALUE: 2700
//
SMILES STR: Cc1noc(C)c1C(=O)N(Cc1cc(=O)[nH]c2c(F)c(F)ccc12)c1cccc(Cl)c1
EXPERIMENTAL READOUT: EC50
QUANTITY UNIT: nM
ASSAY VALUE: 22
//
SMILES STR: CC1=C(C(=O)N(Cc2cc(=O)[nH]c3c(F)c(F)ccc23)c2cccc(Cl)c2)CNCC1
EXPERIMENTAL READOUT: EC50
QUANTITY UNIT: nM
ASSAY VALUE: 57

Next:
Query EC50 on Nitric oxide synthase, inducible (Mus musculus) for Cc1ncsc1C(=O)N(Cc1c(F)c(=O)[nH]c2c(F)cccc12)c1cccc(Cl)c1
130
